Reported GI50 is given for each of the following compounds.
# Test system: HS 578T breast
# Test: NCI tumour cell line growth inhibition, 48 h
Readout: GI50

[[record]]
compound = "COC(=O)[C@]12CC[C@@H](C)[C@H](C)[C@@H]1C1=CC[C@@H]3[C@@]4(C)C=C(O)C(=O)[C@@]5(C)COC(=C54)C[C@@]3(C)[C@]1(C)CC2"
reading = "16.1 µM"

[[record]]
compound = "COc1cc(/C=C2\\CN(C)C/C(=C\\c3cc(CN4CCCCC4)c(O)c(OC)c3)C2=O)cc(CN2CCCCC2)c1O"
reading = "3.27 µM"

[[record]]
compound = "Cc1ccc2c(O)c(O)cc(NC(C)CCCN)c2n1 (centres undefined)"
reading = "13.9 µM"

[[record]]
compound = "O=C(Nc1ccccc1O)c1ccc(Oc2cccc(C(=O)Nc3ccccc3O)c2)cc1"
reading = "2.05 µM"


----------
# Tested on: HL-60(TB) leukemia
# Test: NCI tumour cell line growth inhibition, 48 h
*1 amine or outer side, *2 acyl side, *3 side chain or, on linkers, in order; H or OH if unused. Where a SMILES comes first, the peptide text is derived from it. Bridges are numbered along the chain shown (N, C = ends). Roman numbers before positions name the chains, in order. [ ]: non-standard residue; d: D form. Actinocin(9to1) = Cc1c2oc3c(C)ccc(C(=O)[*:1])c3nc-2c(C(=O)[*:2])c(N)c1=O; NMeV = CN[CH](C(=O)O)C(C)C; Sar = CNCC(=O)O
Reported log10(TGI) is given for each of the following compounds.
Readout: log10(TGI) (log10 of the value in µM)

[[record]]
compound = "O=c1c2cc(I)ccc2nc(Sc2ncccc2[N+](=O)[O-])n1Cc1ccccc1"
reading = 0.31

[[record]]
compound = "CCN1c2ccccc2C(Cl)(c2ccc(N(C)C)cc2)c2ccccc21"
reading = 0.67

[[record]]
compound = "CC(C)(C)C(=O)ON1N=NC2C3CC(OCc4ccccc4)(OCc4ccccc4)C(O3)C21 (stereo unspecified)"
reading = 1.28

[[record]]
compound = "COc1ccc(-c2ccc(-c3ccc(-c4ccc(C(=N)N)cc4)s3)s2)cc1OC"
reading = 1.45

[[record]]
compound = "NC1=NC(c2ccc(Cl)cc2)C2=C(N1)/C(=C/c1ccc(Cl)cc1)CCC2 (stereo unspecified)"
reading = 1.66

[[record]]
compound = "Cc1cc(C)c(O)c(CN(C)Cc2cc(Cl)cc(Cl)c2O)c1"
reading = 1.52

[[record]]
compound = "C=C1C(=O)O[C@H]2[C@H]1CC/C(COC(=O)CSCC(=O)OC/C1=C/CC[C@@]3(C)O[C@H]3[C@H]3OC(=O)C(=C)[C@@H]3CC1)=C\\CC[C@@]1(C)O[C@@H]21"
reading = 0.32

[[record]]
compound = "CN(C)CCSC(=Nc1ccccc1)N1CCCCC1"
reading = 1.69

[[record]]
compound = "COc1ccc2c(c1)N=C1CSC(c3ccccc3Cl)N1C2 (stereo unspecified)"
reading = 0.68

[[record]]
compound = "c1ccc(-n2nnnc2-c2cccc3ccccc23)cc1"
reading = 0.23

[[record]]
compound = "C=C(c1ccc(C(=O)N(C)c2ccccc2N)cc1)C(C)N1C(=O)[C@H]2CCCN2C(=O)c2ccccc21 (stereo partly specified)"
reading = 1.90

[[record]]
compound = "COc1ccc(C(=O)c2cc3c(OC)c(OC)c(OC)cc3[nH]2)cc1"
reading = 1.79

[[record]]
compound = "Oc1[nH]c2ccccc2c1N=Nc1nc(-c2ccc(Cl)c(Cl)c2)cs1"
reading = -0.14

[[record]]
compound = "COc1cc(/C=C2\\CCC(CN(C)C)C2=O)ccc1OC(=O)c1ccccc1 (stereo unspecified)"
reading = 0.94

[[record]]
compound = "C=C(CC[C@@H](C(=O)O)[C@H]1[C@H](O)C[C@@]2(C)C3=CC[C@@H](C(=C)C)[C@](C)(CCC(=O)O)C3=CC[C@]12C)C(C)C"
reading = 1.56

[[record]]
compound = "Cc1c2oc3c(C)ccc(C(=O)NC4C(=O)NC(C(C)O)C(=O)N5CCCC5C(=O)N(C)CC(=O)N(C)C(C(C)C)C(=O)OC4C)c3nc-2c(C(=O)NC2C(=O)NC(C(C)O)C(=O)N3CCCC3C(=O)N(C)CC(=O)N(C)C(C(C)C)C(=O)OC2C)c(N)c1=O (stereo unspecified) (I: TTP[Sar][NMeV] / II: TTP[Sar][NMeV]; ester I:1-I:C, II:1-II:C; linker I:N-II:N via Actinocin(9to1); configuration not given here)"
reading = 0.71

[[record]]
compound = "CCCCOP1(=O)C=C(C)C(=C(Cl)Cl)C(C)=C1 (stereo unspecified)"
reading = 0.92

[[record]]
compound = "C=C1C(=O)OCC2C(C(=O)O)=CC3C(C)C(C)=CC123 (stereo unspecified)"
reading = 1.41

[[record]]
compound = "COc1ccc2c(c1)n([O-])c(C#N)c(N1CCN(c3ccc([N+](=O)[O-])cc3)CC1)[n+]2=O"
reading = 1.46


----------
Reported GI50 is given for each of the following molecules.
# Test system: SF-268 CNS
# Test: NCI tumour cell line growth inhibition, 48 h
Readout: GI50

[[record]]
molecule = "Cc1c(C)[n+](=O)c(C)c(C)n1[O-]"
target_or_system = "SF-268 CNS"
reading = "> 100 µM"

[[record]]
molecule = "C=C1C(=O)O[C@H]2[C@H]1CC/C(COC(=O)NCCc1c[nH]c3ccc(OC)cc13)=C\\CC[C@@]1(C)O[C@@H]21"
target_or_system = "SF-268 CNS"
reading = "3 µM"

[[record]]
molecule = "Cc1ccc2c(O)c(O)cc(NC(C)CCCN)c2n1 (centres undefined)"
target_or_system = "SF-268 CNS"
reading = "16.7 µM"

[[record]]
molecule = "O=C(O)c1ccc(N/C=C2\\C(=O)c3ccccc3OC2O)cc1O (centres undefined)"
target_or_system = "SF-268 CNS"
reading = "21.8 µg/mL"


----------
# Tested on: DLD-1 colon
# Test: NCI tumour cell line growth inhibition, 48 h
Reported TGI is given for each of the following compounds.
Readout: TGI

[[record]]
compound = "COc1cc2c[n+](C)c3c4ccccc4ccc3c2cc1OC (tested in a mixture with another compound)"
target_or_system = "DLD-1 colon"
reading = "> 100 µM"

[[record]]
compound = "Cc1cccc(C2=NC(C)(C)C(C)(C)N=C2c2cccc(C)n2)n1"
target_or_system = "DLD-1 colon"
reading = "> 100 µM"

[[record]]
compound = "COc1cc2c(cc1O)CC13CCC(=O)N1CCc1cc(OC)c(O)c-2c13 (stereo not given)"
target_or_system = "DLD-1 colon"
reading = "> 68.1 µM"

[[record]]
compound = "CCSC1=C(C)N(C=NC(C)(C)C)CC1"
target_or_system = "DLD-1 colon"
reading = "> 100 µM"

[[record]]
compound = "CC#CC1/C(=C\\C(=O)OC)CCCC1O (stereo not given)"
target_or_system = "DLD-1 colon"
reading = "> 100 µM"

[[record]]
compound = "CCCCOC(=O)NC(=O)c1cn(CCSCCOC(=O)NCCCCCCNC(=O)OCCSCCn2cc(C(=O)NC(=O)OCCCC)c(=O)[nH]c2=O)c(=O)[nH]c1=O"
target_or_system = "DLD-1 colon"
reading = "> 100 µM"

[[record]]
compound = "O=C1C(=O)N(c2ccc(Cl)cc2Cl)C(=O)C(=O)C1c1nc2ccccc2o1"
target_or_system = "DLD-1 colon"
reading = "> 100 µM"

[[record]]
compound = "c1ccc2c(c1)CCc1cc3cc4c(nc3nc1-2)-c1ccccc1CC4"
target_or_system = "DLD-1 colon"
reading = "> 100 µM"

[[record]]
compound = "CCCCOP1(=O)C=C(C)C(=C(Cl)Cl)C(C)=C1 (stereo not given)"
target_or_system = "DLD-1 colon"
reading = "38.9 µM"

[[record]]
compound = "COc1cc(/C=C2\\CCC(CN(C)C)C2=O)ccc1OC(=O)c1ccccc1 (stereo not given)"
target_or_system = "DLD-1 colon"
reading = "16.1 µM"


----------
# Tested on: SK-MEL-5 melanoma
# Test: NCI tumour cell line growth inhibition, 48 h; in the data active means GI50 below about 0.43 µM; inactive means the rest
Classes used: 1 = active, -1 = inactive

[[record]]
compound = "C=CC1CC12C(=O)C1OC2(C)C2C(=O)c3c(O)ccc(O)c3C(=O)C12 (stereo not drawn)"
target_or_system = "SK-MEL-5 melanoma"
discrete_label = -1

[[record]]
compound = "COc1ccc(/C=C\\c2cc(OC)c(OC)c(OC)c2)cc1OC(=O)CCC(=O)O"
target_or_system = "SK-MEL-5 melanoma"
discrete_label = 1

[[record]]
compound = "COc1ccccc1C#Cc1ccccc1C#CCCCCCC#Cc1ccccc1C#Cc1ccccc1OC"
target_or_system = "SK-MEL-5 melanoma"
discrete_label = -1

[[record]]
compound = "COc1ccc(C(=O)c2cc3c(OC)c(OC)c(OC)cc3[nH]2)cc1"
target_or_system = "SK-MEL-5 melanoma"
discrete_label = -1

[[record]]
compound = "C=CCC(N[C@H](CO)c1ccccc1)c1cn(C(=O)OCC)c2ccccc12 (stereo partly drawn)"
target_or_system = "SK-MEL-5 melanoma"
discrete_label = -1

[[record]]
compound = "CN(C)C(=O)c1cc2cnc(Nc3ccc(-c4csc5c(=O)cc(N6CCOCC6)oc45)cc3)nc2n1C1CCCC1"
target_or_system = "SK-MEL-5 melanoma"
discrete_label = 1

[[record]]
compound = "Cc1c2c[n+](C(C)C)ccc2c(C)c2c1[nH]c1ccccc12"
target_or_system = "SK-MEL-5 melanoma"
discrete_label = -1

[[record]]
compound = "CC(=O)OCC1OC(OC2CC3C(C)(C)C(O)CC[C@]3(C)C3CCC45CC4(CC[C@H]5C(C)CC(O)C4OC4(C)C)[C@]23C)C(O)C(O)C1O (stereo partly drawn)"
target_or_system = "SK-MEL-5 melanoma"
discrete_label = -1

[[record]]
compound = "Cc1cc(C)c(O)c(CN(C)Cc2cc(Cl)cc(Cl)c2O)c1"
target_or_system = "SK-MEL-5 melanoma"
discrete_label = -1

[[record]]
compound = "CO[C@@H]1/C=C(C)/C=C/[C@@H](C)/C=C(\\C)C(=O)OC(/C(C)=C/C=C(\\C)CNC(=O)[C@H](CO)NC=O)[C@@H](C)/C=C/C=C/[C@H](OC)CC/C=C(C)/C=C/C1 (stereo partly drawn)"
target_or_system = "SK-MEL-5 melanoma"
discrete_label = 1

[[record]]
compound = "CCOC(=O)/C=C/C(C(=O)/C=C/c1ccc(O)c(OC)c1)=C(O)\\C=C\\c1ccc(O)c(OC)c1"
target_or_system = "SK-MEL-5 melanoma"
discrete_label = -1

[[record]]
compound = "O=C(Cc1cccc(OC(F)(F)F)c1)Nc1ccc(CCCCc2nnc(NC(=O)Cc3ccccn3)s2)nn1"
target_or_system = "SK-MEL-5 melanoma"
discrete_label = -1

[[record]]
compound = "NS(=O)(=O)c1cccc(N=Cc2c(O)[nH]c3ccccc23)c1"
target_or_system = "SK-MEL-5 melanoma"
discrete_label = -1

[[record]]
compound = "COc1cc(/C=C2\\CN(C)C/C(=C\\c3cc(CN4CCCCC4)c(O)c(OC)c3)C2=O)cc(CN2CCCCC2)c1O"
target_or_system = "SK-MEL-5 melanoma"
discrete_label = -1

[[record]]
compound = "COc1cc(-c2nc3sc4c(c3c(=O)[nH]2)CCCCCC4)cc(OC)c1OC"
target_or_system = "SK-MEL-5 melanoma"
discrete_label = -1

[[record]]
compound = "COc1cccc2c1C(=O)c1c(O)c3c(c(O)c1C2=O)C[C@@](O)(C(=O)CO)C[C@@H]3OC1C[C@H](N)[C@H](O)[C@H](C)O1 (stereo partly drawn)"
target_or_system = "SK-MEL-5 melanoma"
discrete_label = 1

[[record]]
compound = "COc1ccc2c(c1)C(c1ccccc1Cl)=Nc1c(n[nH]c1C)N2"
target_or_system = "SK-MEL-5 melanoma"
discrete_label = -1

[[record]]
compound = "N#CCc1ncc(-c2ccc(C(F)(F)F)cc2)c(NC2CCCCCC2)n1"
target_or_system = "SK-MEL-5 melanoma"
discrete_label = -1

